These data points were gathered from ChEMBL document CHEMBL3232788.

assay: Tmax in Sprague-Dawley rat at 6 mg/kg, po; format: ADME, organism-based; set-up: dose 6 mg/kg, route oral; settings: in vivo
MEASURED_ATTRIBUTE: Tmax (h)
One number for each entry, in h.

Query: Tmax; subject: "C[C@](O)(COc1ccc(F)cc1)C(=O)N1CCc2c(C#N)cccc21"
8

====

biological target: Androgen receptor (Homo sapiens, UniProt P10275); assay: Displacement of [3H]mibolerone from full length human AR expressed in COS cells after 3.5 hrs by liquid scintillation counting
Simple rule here: IC50 less than 5 nM is YES, otherwise NO.

Examples with answers:
SMILES_NOTATION | LABEL_VALUE
C[C@](O)(COc1ccc(C#N)cc1Br)C(=O)N1CCc2c(C#N)cccc21 | YES
COc1cc(Cl)ccc1OC[C@](C)(O)C(=O)N1CCc2c(C#N)cccc21 | NO
C[C@](O)(COc1ccc(Br)cc1)C(=O)N1CCc2c(C#N)cccc21 | YES

Is IC50 strictly under 5 nM for the entry "Cc1cc(F)ccc1OC[C@](C)(O)C(=O)N1CCc2c(C#N)cccc21" ?
NO

Here is the next compound: "C[C@](O)(COc1ccc(C#N)cc1F)C(=O)N1CCc2c(C#N)cccc21"
YES

====

Biological target: Androgen receptor (Homo sapiens, UniProt P10275)
Sequence (P10275 whole entry): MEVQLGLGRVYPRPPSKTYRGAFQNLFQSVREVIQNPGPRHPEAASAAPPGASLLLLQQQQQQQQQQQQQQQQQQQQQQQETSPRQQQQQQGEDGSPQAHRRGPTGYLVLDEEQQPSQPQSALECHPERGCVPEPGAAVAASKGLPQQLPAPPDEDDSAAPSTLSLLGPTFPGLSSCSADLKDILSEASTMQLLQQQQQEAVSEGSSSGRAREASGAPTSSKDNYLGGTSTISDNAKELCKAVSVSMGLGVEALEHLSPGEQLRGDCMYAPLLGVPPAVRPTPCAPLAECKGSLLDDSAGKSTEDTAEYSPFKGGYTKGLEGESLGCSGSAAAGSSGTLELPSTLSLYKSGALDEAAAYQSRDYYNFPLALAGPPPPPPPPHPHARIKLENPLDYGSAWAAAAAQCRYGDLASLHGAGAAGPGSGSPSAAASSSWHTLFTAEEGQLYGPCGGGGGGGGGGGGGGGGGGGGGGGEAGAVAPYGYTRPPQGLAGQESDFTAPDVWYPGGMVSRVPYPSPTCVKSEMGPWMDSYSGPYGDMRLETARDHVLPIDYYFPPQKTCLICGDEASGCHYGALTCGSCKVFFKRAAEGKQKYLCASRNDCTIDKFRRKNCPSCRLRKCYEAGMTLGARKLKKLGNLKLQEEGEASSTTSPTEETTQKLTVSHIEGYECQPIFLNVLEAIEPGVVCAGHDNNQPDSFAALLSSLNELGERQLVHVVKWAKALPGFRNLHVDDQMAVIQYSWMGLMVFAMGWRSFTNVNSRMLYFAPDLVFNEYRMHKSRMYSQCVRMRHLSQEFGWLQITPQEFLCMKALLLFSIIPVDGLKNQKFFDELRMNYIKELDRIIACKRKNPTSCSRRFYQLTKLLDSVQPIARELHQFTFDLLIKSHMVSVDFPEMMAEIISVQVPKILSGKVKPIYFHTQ
Assay: Agonist activity at human AR expressed in CV1 cells after 17 hrs by luciferase reporter gene assay
Format: cell-based, CV-1
Simple rule here: EC50 less than 2 nM is Y, otherwise N.

Examples with answers:
SMILES_NOTATION | LABEL_VALUE
C[C@](O)(COc1ccc(Cl)cc1F)C(=O)N1CCc2c(C#N)cccc21 | Y
COC(=O)c1ccc(OC[C@](C)(O)C(=O)N2CCc3c(C#N)cccc32)cc1 | N
C[C@](O)(COc1ccc(Cl)cc1Cl)C(=O)N1CCc2c(C#N)cccc21 | Y
C[C@](O)(COc1ccccc1C(F)(F)F)C(=O)N1CCc2c(C#N)cccc21 | Y
C[C@](O)(COc1ccc(C#N)cc1)C(=O)N1CCc2c(C#N)cccc21 | Y
C[C@](O)(COc1ccccc1)C(=O)N1CCc2c(C#N)cccc21 | N
COc1ccc(OC[C@](C)(O)C(=O)N2CCc3c(C#N)cccc32)c(F)c1 | N
COc1cc(C#N)ccc1OC[C@](C)(O)C(=O)N1CCc2c(C#N)cccc21 | N
C[C@](O)(COc1ccc(F)cc1C#N)C(=O)N1CCc2c(C#N)cccc21 | Y
C[C@](O)(COc1ccc(Br)cc1)C(=O)N1CCc2c(C#N)cccc21 | Y

Is EC50 strictly under 2 nM for the entry "C[C@](O)(COc1ccccc1Cl)C(=O)N1CCc2c(C#N)cccc21" ?
N

Here is the next compound: "COc1ccc(OC[C@](C)(O)C(=O)N2CCc3c(C#N)cccc32)cc1"
N

Here is the next compound: "C[C@](O)(COc1ccc(C#N)cc1F)C(=O)N1CCc2c(C#N)cccc21"
Y

Here is the next compound: "C[C@](O)(COc1ccccc1F)C(=O)N1CCc2c(C#N)cccc21"
N

Here is the next compound: "COc1ccc(OC[C@](C)(O)C(=O)N2CCc3c(C#N)cccc32)c(Cl)c1"
Y

Here is the next compound: "COc1cc(Cl)ccc1OC[C@](C)(O)C(=O)N1CCc2c(C#N)cccc21"
N

Here is the next compound: "C[C@](O)(COc1ccc(Br)cc1F)C(=O)N1CCc2c(C#N)cccc21"
Y

====

target: Androgen receptor (Homo sapiens); test: Agonist activity at human AR expressed in CV1 cells after 17 hrs by luciferase reporter gene assay; assay type: cell-based, CV-1
Please go through the items and note down their log10 of EC50.
Give log10 of EC50, with EC50 taken in nM.

SMILES_NOTATION | log10 of EC50
C[C@](O)(COc1ccc(F)cc1Br)C(=O)N1CCc2c(C#N)cccc21 | -0.40
C[C@](O)(COc1cccc(Cl)c1)C(=O)N1CCc2c(C#N)cccc21 | 2.44
C[C@](O)(COc1ccc(C#N)cc1Br)C(=O)N1CCc2c(C#N)cccc21 | -1.22
C[C@](O)(COc1ccc(F)cc1)C(=O)N1CCc2c(C#N)cccc21 | 0.40

Proceeding to the next molecule to report its log10 of EC50.
Query: log10 of EC50; subject: "C[C@](O)(COc1cccc(F)c1)C(=O)N1CCc2c(C#N)cccc21"
1.57

====

assay: Aqueous solubility of the compound at pH 6.5; format: physicochemical
MEASURED_ATTRIBUTE: solubility (µM)
Numbers only, in µM.

Query: solubility; subject: "C[C@](O)(COc1ccc(F)cc1)C(=O)N1CCc2c(C#N)cccc21"
14

====

assay: Tmax in Sprague-Dawley rat at 10 mg/kg, sc; assay type: ADME, organism-based; design: dose 10 mg/kg, route subcutaneous; conditions: in vivo
MEASURED_ATTRIBUTE: Tmax (h)
Give bare numbers, in h.

Query: Tmax; subject: "C[C@](O)(COc1ccc(F)cc1)C(=O)N1CCc2c(C#N)cccc21"
4

====

molecular target: Androgen receptor (Homo sapiens, UniProt P10275); experiment: Agonist activity at human AR expressed in CV1 cells after 17 hrs by luciferase reporter gene assay; assay type: cell-based, CV-1
MEASURED_ATTRIBUTE: pEC50
Give bare numbers, as −log10 of the molar value.

// below: answered molecules
SMILES_NOTATION | pEC50
C[C@](O)(COc1ccc(C(F)(F)F)cc1)C(=O)N1CCc2c(C#N)cccc21 | 8.74
C[C@](O)(COc1ccccc1C#N)C(=O)N1CCc2c(C#N)cccc21 | 9.82
C[C@](O)(COc1ccc(Cl)cc1)C(=O)N1CCc2c(C#N)cccc21 | 8.47
Cc1cc(F)ccc1OC[C@](C)(O)C(=O)N1CCc2c(C#N)cccc21 | 8.96

Proceeding to the next molecule to report its pEC50.
Report pEC50 for "C[C@](O)(COc1ccc(-c2cocn2)cc1)C(=O)N1CCc2c(C#N)cccc21" tested on Androgen receptor (Homo sapiens, UniProt P10275).
8.14

====

target: Androgen receptor (Homo sapiens, UniProt P10275); assay: Displacement of [3H]mibolerone from full length human AR expressed in COS cells after 3.5 hrs by liquid scintillation counting
Simple rule here: IC50 less than 30 nM is label 1, otherwise label 0.

Examples with answers:
SMILES_NOTATION | LABEL_VALUE
COc1ccc(OC[C@](C)(O)C(=O)N2CCc3c(C#N)cccc32)c(F)c1 | label 0
C[C@](O)(COc1ccc(C#N)cc1)C(=O)N1CCc2c(C#N)cccc21 | label 1
C[C@](O)(COc1ccc(C(F)(F)F)cc1)C(=O)N1CCc2c(C#N)cccc21 | label 0
C[C@](O)(COc1cccc(F)c1)C(=O)N1CCc2c(C#N)cccc21 | label 0
COC(=O)c1ccc(OC[C@](C)(O)C(=O)N2CCc3c(C#N)cccc32)cc1 | label 0
C[C@](O)(COc1ccccc1F)C(=O)N1CCc2c(C#N)cccc21 | label 1
C[C@](O)(COc1ccccc1C(F)(F)F)C(=O)N1CCc2c(C#N)cccc21 | label 0
C[C@](O)(COc1ccc(Cl)cc1)C(=O)N1CCc2c(C#N)cccc21 | label 0
C[C@](O)(COc1ccc(F)cc1C#N)C(=O)N1CCc2c(C#N)cccc21 | label 1
C[C@](O)(COc1ccccc1Cl)C(=O)N1CCc2c(C#N)cccc21 | label 0

Is IC50 strictly under 30 nM for the entry "COc1ccc(OC[C@](C)(O)C(=O)N2CCc3c(C#N)cccc32)c(Cl)c1" ?
label 1

Here is the next molecule: "C[C@](O)(COc1ccc(Br)cc1F)C(=O)N1CCc2c(C#N)cccc21"
label 0
